FYI, the data here is from the supplement of paper PMC9233669.

Items are presented alongside their recorded self-aminoacylation.
# Tested on: biotinyl-Met-oxazolone
# Test: self-aminoacylation, catalytic enhancement (BMO) (fold over background); higher = more active; k-Seq, kA / k0A0; sequences stand for … in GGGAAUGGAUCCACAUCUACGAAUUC…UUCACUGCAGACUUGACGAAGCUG
This sample holds only a part of the variants without activity.
Give the figure only, with no unit attached.

Would you please look over these solved cases?
biosequence="AAGUUUGCUAACAGUCUCAAG [Fam3.1 aminoacylation ribozyme variant]" measurement_type=self-aminoacylation recorded_result=0.713
biosequence="CCACACUGCAAGCGAUCGGUC [Fam1B.1 aminoacylation ribozyme variant]" measurement_type=self-aminoacylation recorded_result=1.19
biosequence="AAGUUUGCUAAAAAUCGCAAG [Fam3.1 aminoacylation ribozyme variant]" measurement_type=self-aminoacylation recorded_result=0.925
biosequence="ACUACCCUGGACAUCGAGUGA [Fam2.1 aminoacylation ribozyme variant]" measurement_type=self-aminoacylation recorded_result=7.03
biosequence="CCACACUUUGAGCAAUCGGUC [Fam1B.1 aminoacylation ribozyme variant]" measurement_type=self-aminoacylation recorded_result=0.858
biosequence="CUACUUCAGACAAUCCGUCUG [Fam1A.1 aminoacylation ribozyme variant]" measurement_type=self-aminoacylation recorded_result=0.675
biosequence="CCACACUUCAAGCAGGCGGUC [Fam1B.1 aminoacylation ribozyme variant]" measurement_type=self-aminoacylation recorded_result=1.24
biosequence="AUUCACCUCGGUCAUCGGGUA [Fam2.2 aminoacylation ribozyme variant]" measurement_type=self-aminoacylation recorded_result=3.24

Pending sequence:
Answer with reported self-aminoacylation of AUUACUCUGGUCAUUGAGUGA [Fam2.1 aminoacylation ribozyme variant]
7.88

----------
Items are presented alongside their recorded self-aminoacylation.
# Test system: biotinyl-Leu-oxazolone
# Test: self-aminoacylation, catalytic enhancement (BLO) (fold over background); higher = more active; k-Seq, kA / k0A0; sequences stand for … in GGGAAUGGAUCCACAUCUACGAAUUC…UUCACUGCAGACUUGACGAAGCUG
Variants at the floor of the assay were thinned out.
Give the figure only, with no unit attached.

Would you please look over these solved cases?
biosequence="AUUACCCUGGUCCUCGGGUGA [Fam2.1 aminoacylation ribozyme variant]" measurement_type=self-aminoacylation recorded_result=10.4
biosequence="CCACACUUCAAGCGAGCGGUC [Fam1B.1 aminoacylation ribozyme variant]" measurement_type=self-aminoacylation recorded_result=0.93
biosequence="CUACUUCAAACAAUCGGGCGG [Fam1A.1 aminoacylation ribozyme variant]" measurement_type=self-aminoacylation recorded_result=1.31

Answer with reported self-aminoacylation of UCAGACUUCAAGCAAUCGGUC [Fam1B.1 aminoacylation ribozyme variant]
2.62

----------
# Tested on: biotinyl-Met-oxazolone
# Test: self-aminoacylation, catalytic enhancement (BMO) (fold over background); higher = more active; k-Seq, kA / k0A0; sequences stand for … in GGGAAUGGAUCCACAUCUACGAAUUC…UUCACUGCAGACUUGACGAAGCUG
Variants at the floor of the assay were thinned out.
Label criterion met when self-aminoacylation is at or above 5; anything below gets criterion not met.

Previously resolved entries follow.
biosequence="AUCGACCUAGGUCAUCGGGUG [Fam2.2 aminoacylation ribozyme variant]" assay_target=biotinyl-Met-oxazolone answer_label="criterion met"
biosequence="AGUCACCUUGGUCAUCGGGUG [Fam2.2 aminoacylation ribozyme variant]" assay_target=biotinyl-Met-oxazolone answer_label="criterion met"
biosequence="AUUACCCUGGUCAUCGGGUUA [Fam2.1 aminoacylation ribozyme variant]" assay_target=biotinyl-Met-oxazolone answer_label="criterion met"
biosequence="AUUAUCCGGGUCAUCGAGUGA [Fam2.1 aminoacylation ribozyme variant]" assay_target=biotinyl-Met-oxazolone answer_label="criterion met"

Hello, I need to know if AAGUGUACUAAUAGUCGCAAG [Fam3.1 aminoacylation ribozyme variant] has measured self-aminoacylation not below 5. Thanks!
criterion not met

Hello, I need to know if AAUUUUGCUAAUAGUCGCGAG [Fam3.1 aminoacylation ribozyme variant] has measured self-aminoacylation not below 5. Thanks!
criterion not met

Hello, I need to know if CCACACUUCAAGCUAUCGGGC [Fam1B.1 aminoacylation ribozyme variant] has measured self-aminoacylation not below 5. Thanks!
criterion not met

Hello, I need to know if CCACUCCUCAAGCAAUCGGUC [Fam1B.1 aminoacylation ribozyme variant] has measured self-aminoacylation not below 5. Thanks!
criterion not met

Hello, I need to know if CCAGACUUUAAGCAAUCGGUC [Fam1B.1 aminoacylation ribozyme variant] has measured self-aminoacylation not below 5. Thanks!
criterion not met
